Entry source: patent US5736533A

Tested on: S. pneumoniae
EXPERIMENTAL_DETAILS: inhibition of adherence of S. pneumoniae to respiratory epithelial cells
Assay type: cell-based
CONDITION_DETAILS: Streptococcus pneumoniae, A549, read-out: IC50 [mean (SD)], Monovalent; A549 human lung carcinoma, activated with IL1
The following compounds are listed with their measured IC50 values.

COMPOUND	IC50
CC(=O)N[C@H]1[C@H](O[C@H]2[C@@H](O)[C@@H](CO)O[C@@H](O[C@H]3[C@H](O)[C@@H](O)C(O)O[C@@H]3CO)[C@@H]2O)O[C@H](CO)[C@@H](O[C@@H]2O[C@H](CO)[C@H](O)[C@H](O[C@@H]3O[C@H](CO)[C@H](O)[C@H](O)[C@H]3NC(C)=O)[C@H]2O)[C@@H]1O (stereo partly shown)	80 µM
CC(=O)N[C@H]1[C@H](O[C@H]2[C@@H](O)[C@@H](CO)O[C@@H](O[C@H]3[C@H](O)[C@@H](O)C(O)O[C@@H]3CO)[C@@H]2O)O[C@H](CO)[C@@H](O[C@@H]2O[C@H](CO[C@]3(C(=O)O)C[C@H](O)[C@@H](NC(C)=O)[C@H]([C@H](O)[C@H](O)CO)O3)[C@H](O)[C@H](O)[C@H]2O)[C@@H]1O (stereo partly shown)	69 µM
CC(=O)N[C@H]1[C@H](O[C@H]2[C@@H](O)[C@@H](CO)O[C@@H](O[C@H]3[C@H](O)[C@@H](O)C(O)O[C@@H]3CO)[C@@H]2O)O[C@H](CO)[C@@H](O[C@@H]2O[C@H](CO)[C@H](O)[C@H](O)[C@H]2O)[C@@H]1O (stereo partly shown)	95 µM
CC(=O)N[C@H]1[C@H](O[C@H]2[C@@H](O)[C@@H](CO)O[C@@H](O[C@H]3[C@H](O)[C@@H](O)C(O)O[C@@H]3CO)[C@@H]2O)O[C@H](CO)[C@@H](O[C@@H]2O[C@H](CO)[C@H](O)[C@H](O[C@]3(C(=O)O)C[C@H](O)[C@@H](NC(C)=O)[C@H]([C@H](O)[C@H](O)CO)O3)[C@H]2O)[C@@H]1O (stereo partly shown)	95 µM

###

Reported pIC50 is given for each of the following molecules.
Tested on: S. pneumoniae
EXPERIMENTAL_DETAILS: inhibition of adherence of S. pneumoniae to respiratory epithelial cells
Assay type: cell-based
CONDITION_DETAILS: Streptococcus pneumoniae, HUVEC, read-out: IC50 [mean (SD)], Monovalent; HUVEC activated with TNFα or thrombin
pIC50: −log10 of the molar value.
PROPERTY: pIC50

MOLECULE	TEST_TARGET	PROPERTY	VALUE_REPORTED
CC(=O)N[C@H]1[C@H](O[C@H]2[C@@H](O)[C@@H](CO)O[C@@H](O[C@H]3[C@H](O)[C@@H](O)C(O)O[C@@H]3CO)[C@@H]2O)O[C@H](CO)[C@@H](O[C@@H]2O[C@H](CO)[C@H](O)[C@H](O)[C@H]2O)[C@@H]1O (some centres unmarked)	S. pneumoniae	pIC50	4.28
CC(=O)N[C@H]1[C@H](O[C@H]2[C@@H](O)[C@@H](CO)O[C@@H](O[C@H]3[C@H](O)[C@@H](O)C(O)O[C@@H]3CO)[C@@H]2O)O[C@H](CO)[C@@H](O[C@@H]2O[C@H](CO)[C@H](O)[C@H](O[C@]3(C(=O)O)C[C@H](O)[C@@H](NC(C)=O)[C@H]([C@H](O)[C@H](O)CO)O3)[C@H]2O)[C@@H]1O (some centres unmarked)	S. pneumoniae	pIC50	4.05
CC(=O)N[C@H]1[C@H](O[C@H]2[C@@H](O)[C@@H](CO)O[C@@H](O[C@H]3[C@H](O)[C@@H](O)C(O)O[C@@H]3CO)[C@@H]2O)O[C@H](CO)[C@@H](O[C@@H]2O[C@H](CO)[C@H](O)[C@H](O[C@@H]3O[C@H](CO)[C@H](O)[C@H](O)[C@H]3NC(C)=O)[C@H]2O)[C@@H]1O (some centres unmarked)	S. pneumoniae	pIC50	4.12
CC(=O)N[C@H]1[C@H](O[C@H]2[C@@H](O)[C@@H](CO)O[C@@H](O[C@H]3[C@H](O)[C@@H](O)C(O)O[C@@H]3CO)[C@@H]2O)O[C@H](CO)[C@@H](O[C@@H]2O[C@H](CO[C@]3(C(=O)O)C[C@H](O)[C@@H](NC(C)=O)[C@H]([C@H](O)[C@H](O)CO)O3)[C@H](O)[C@H](O)[C@H]2O)[C@@H]1O (some centres unmarked)	S. pneumoniae	pIC50	4.16
CC(=O)N[C@H]1[C@H](O[C@H]2[C@@H](O)[C@@H](CO)O[C@@H](O[C@H]3[C@H](O)[C@@H](O)C(O)O[C@@H]3CO)[C@@H]2O)O[C@H](CO)[C@H](O)[C@@H]1O (some centres unmarked)	S. pneumoniae	pIC50	4.15

###

System: S. pneumoniae
EXPERIMENTAL_DETAILS: inhibition of adherence of S. pneumoniae to respiratory epithelial cells
Assay type: cell-based
CONDITION_DETAILS: Streptococcus pneumoniae, A549, read-out: IC50 [mean (SD)], Monovalent; A549 human lung carcinoma, activated with IL1

COMPOUND	IC50 [µM]
CC(=O)N[C@H]1[C@H](O[C@H]2[C@@H](O)[C@@H](CO)O[C@@H](O[C@H]3[C@H](O)[C@@H](O)C(O)O[C@@H]3CO)[C@@H]2O)O[C@H](CO)[C@H](O)[C@@H]1O (stereo partly shown)	85
